Tested on: T1, CSP C-terminal peptide 282-383 (Plasmodium falciparum)
T1 construct: Coated at 1 ug/ml in ELISA; also called C-terminus of CSP
Assay remarks: ELISA, C-terminal peptide 282-383 coated at 1 ug/ml
Endpoint name: binding result

[[record]]
binder = "MGH1 (antibody, V domains shown) VH: QVQLVQSGAEVKKPGASVRVSCKTSGYTFTDYYVHWVRQAPGHGLECMGWINPYIGVSKYAQKFQGRVTLTRDTSISTAYMEISRLTSDDTAVYYCAACSNVGCYVYWGQGSLVTVSS VL: DVVMTQSPLSLPVTLGQPASISCRSSQSLVYSDGNTYLNWFQQRPGQSPRRLIYKVSNRDSGVPDRFSGSGSGTDFTLKISRVEAEDVAIYFCMQGTHWPDTFGQGTKLEIK"
endpoint_name = "binding result"
result = "no binding"

[[record]]
binder = "MGG4 (antibody, V domains shown) VH: QVQLVESGGGVVQPGRSLRLSCAASGFRFSDYGMHWVRQAPGKGLEWVALIWYDGSNESYLDSVKGRFTISRDNSKNTLYLQMNNLRTEDTAVYYCAKLLVGITTDVFDVWGQGTVVTVSS VL: DIVMTQSPDSLAVSLGERATINCRSSQSVLSSSNNKNYLAWYQHKPRQPPKLLIYWASTRESGVPDRFSGSGSGTDFTLTISSLQAEDVAVYYCQQYYTASPFFGGGTKVEIK"
endpoint_name = "binding result"
result = "no binding"

